Where do these numbers come from? They come from PubChem BioAssay AID1159580.

assay: chemical genetic growth profiling, strain panel (AID 1159580);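 further: tested at 20 µM; growth read once vehicle control cultures reached saturation at 30 °C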; settings: S. cerevisiae deletion strains, growth OD, locus YDR137W, strain rgp1, stronger effect = lower value
The whole screen tested about 5,500 compounds, of which about 2,000 (36%) were called active. Another 18% or so got no clear call; they are omitted. The list shows a part of the results.
Threshold 0.9: normalized growth strictly smaller gives true, otherwise false.

# TODO verify normalized growth < 0.9 strictly for this compound: C=CC(C1=CC(=O)C=CC1=O)c1ccccc1 (stereo not drawn)
false

Determine if CC(=O)O[C@@H]1CC2C(C)(C)C=CC(=O)[C@]2(C)C2CC[C@@]3(C)[C@H](c4ccoc4)OC(=O)C4OC43[C@@]21C (stereo partly drawn) shows normalized growth strictly lower than 0.9.
false

Please determine if O=C(O)c1ccccc1Nc1ccccc1 is below 0.9 in terms of normalized growth.
true

Field: below-cutoff. Rule: recorded normalized growth strictly less than 0.9. Subject: C[C@H](N)[C@H](O)c1ccc(O)c(O)c1
false

Item CC(=O)NCCCS(=O)(=O)O : normalized growth beneath 0.9, strictly?
false

Record Cc1c(Nc2ncccc2C(=O)O)cccc1C(F)(F)F : is its normalized growth strictly below 0.9?
false

Does the reported normalized growth of the following compound sit strictly below 0.9? C[n+]1cccc(C(=O)[O-])c1
false

Hello, is normalized growth of the following compound strictly smaller than 0.9? O=C(OC1Cc2c(O)cc(O)cc2OC1c1cc(O)c(O)c(O)c1-c1c(C2Oc3cc(O)cc(O)c3CC2OC(=O)c2cc(O)c(O)c(O)c2)cc(O)c(O)c1O)c1cc(O)c(O)c(O)c1 (stereo not drawn)
true

Others:
Item Oc1c(Cl)cc(Cl)c2cccnc12 : normalized growth beneath 0.9, strictly?
true

Problem: For the compound CCCCC1=NC2(CCCC2)C(=O)N1Cc1ccc(-c2ccccc2-c2nn[nH]n2)cc1 , is normalized growth under 0.9?
false

Below 0.9 on normalized growth? Entry COc1cc(OC)c2c(=O)c(-c3ccccc3)c(C)oc2c1OC
false

Item O=[N+]([O-])c1cc(O)c(O)c([N+](=O)[O-])c1 : normalized growth beneath 0.9, strictly?
false

Check if normalized growth falls below 0.9 for CO[C@H]1/C=C/O[C@@]2(C)Oc3c(C)c(O)c4c(O)c(c5c(nc6cc(C)ccn65)c4c3C2=O)NC(=O)/C(C)=C\C=C\[C@H](C)[C@H](O)[C@@H](C)C(O)[C@@H](C)[C@H](OC(C)=O)[C@@H]1C (stereo partly drawn) .
false

Does the reported normalized growth of the following compound sit strictly below 0.9? C[C@H]1[C@H]2CCC3C4CC=C5C[C@@H](N(C)C)CC[C@]5(C)C4CC[C@@]32CN1C (stereo partly drawn)
false

Given CC(=O)O[C@@H]1C[C@@]2(C)[C@H](c3ccoc3)C[C@H]3O[C@]32[C@]2(C)C(=O)C(O)=C3C(C)(C)C(=O)C=C[C@]3(C)C12 (stereo partly drawn) , is recorded normalized growth strictly lower than 0.9?
true

Dear reviewer, please state whether N[C@@H](Cc1ccc(O)c(O)c1)C(=O)O has normalized growth strictly beneath 0.9.
false

Report whether reported normalized growth is lower than 0.9 (strictly) for CC(=O)NCCCCCC(=O)O
false

Just wondering, is normalized growth of CC1(C)C(C(Cl)Cl)C2(Cl)C(Cl)C(Cl)C1(Cl)C2(Cl)Cl (stereo not drawn) below 0.9?
true

State whether 0.9 exceeds normalized growth recorded for COC(C)(C)CCC[C@H](C)C/C=C/C(C)=C/C(=O)OC(C)C .
false

# TODO verify normalized growth < 0.9 strictly for this compound: CC(C)NCC(O)c1ccc2ccccc2c1 (stereo not drawn)
false
